Tested on: U2OS
Test Name: Multiplex assay against U2OS
Format: toxicity, cell-based
Particulars: human, 12 h, 10 µM, compound concentration 10 uM, replicate 2
Reported Metric: Population Healthy Nuclei (%)
Give bare numbers, in %.

Would you please look over these solved cases?
compound=C=C1/C(=C\C=C2/CCC[C@]3(C)[C@@H]([C@H](C)/C=C/[C@H](C)C(C)C)CC[C@@H]23)C[C@@H](O)C[C@@H]1O unit_annotation=% observed_result=67
compound="CCOC(=O)c1c(C)[nH]c2ccc3c(c12)CN1CCc2cc(OC)ccc2C1O3 (stereo unspecified)" unit_annotation=% observed_result=75
compound=O=C(Nc1cccnn1)N1CCC(=Cc2cccc(Oc3ccc(C(F)(F)F)cn3)c2)CC1 unit_annotation=% observed_result=91
compound=O=C(Nc1ccc(Cl)cc1)Nc1cccc(-c2cccc(N3CCCC3)n2)c1 unit_annotation=% observed_result=78
compound=Cc1cc(C)c(S(=O)(=O)N(Cc2ccc(-c3cccc(S(C)(=O)=O)c3)cc2)Cc2ccc(C(F)(F)F)o2)c(C)c1 unit_annotation=% observed_result=77
compound=COCC(=O)NC/C=C/c1ccc2ncnc(Nc3ccc(Oc4ccc(C)nc4)c(C)c3)c2c1 unit_annotation=% observed_result=63

Here are 5 compounds. What values of Population Healthy Nuclei (%) were reported for them?
1. Cl.Oc1ccc2c3c1O[C@H]1c4[nH]c5c(c4C[C@@]4(O)[C@@H](C2)N(CC2CC2)CC[C@]314)C[C@@]1(O)[C@H]2Cc3ccc(O)c4c3[C@@]1(CCN2CC1CC1)[C@H]5O4
2. CN1C2CCC1CC(OC(c1ccc(F)cc1)c1ccc(F)cc1)C2.Cl (stereo unspecified)
3. COc1cc2ncnc(Nc3ccc(F)c(Cl)c3)c2cc1NC(=O)/C=C/CN1CCCCC1 [DACOMITINIB ANHYDROUS]
4. COc1cccc2cc(-c3nc([C@H]4CC[C@H](C(=O)O)CC4)n4ncnc(N)c34)[nH]c12
5. NC(=O)c1cccc(-c2cc(Nc3ccc(OC(F)(F)F)cc3)ncn2)c1

# output
1. 48
2. 78
3. 82
4. 78
5. 87
